experiment: Compound was tested in vitro for loss of compound after 30 min exposure to liver microsomes of dog at 25 uM concentration; assay type: ADME, organism-based, Canis lupus familiaris; conditions: read-out: Metabolism
Label key: Criterion met means metabolised at 0.5 h, 25 µM under 60%; Criterion not met means metabolised at 0.5 h, 25 µM of 60% or more.

{"mol": "C#CC[C@@H](C(=O)N[C@H](/C=C/C(=O)OC1CCC1)C[C@@H]1CCNC1=O)n1cccc(NC(=O)c2cc(C)on2)c1=O", "classification": "Criterion met"}
{"mol": "Cc1cc(C(=O)Nc2cccn([C@@H](Cc3ccc(F)c(F)c3)C(=O)N[C@H](/C=C/C(=O)OC(C)C)C[C@@H]3CCNC3=O)c2=O)no1", "classification": "Criterion met"}
{"mol": "C#CC[C@@H](C(=O)N[C@H](/C=C/C(=O)OC1CCCC1)C[C@@H]1CCNC1=O)n1cccc(NC(=O)c2cc(C)on2)c1=O", "classification": "Criterion not met"}
{"mol": "C#CC[C@@H](C(=O)N[C@H](/C=C/C(=O)OCC)C[C@@H]1CCNC1=O)n1cccc(NC(=O)c2cc(C)on2)c1=O", "classification": "Criterion met"}
{"mol": "CCOC(=O)/C=C/[C@H](C[C@@H]1CCNC1=O)NC(=O)[C@H](Cc1ccc(F)c(F)c1)n1cccc(NC(=O)c2cc(C)on2)c1=O", "classification": "Criterion met"}
{"mol": "C#CC[C@@H](C(=O)N[C@H](/C=C/C(=O)OCc1ccccc1)C[C@@H]1CCNC1=O)n1cccc(NC(=O)c2cc(C)on2)c1=O", "classification": "Criterion not met"}
{"mol": "CC[C@@H](C(=O)N[C@H](/C=C/C(=O)OC1CCC1)C[C@@H]1CCNC1=O)n1cccc(NC(=O)c2cc(C)on2)c1=O", "classification": "Criterion met"}
{"mol": "CCOC(=O)/C=C/[C@H](C[C@@H]1CCNC1=O)NC(=O)[C@H](CC)n1cccc(NC(=O)c2cc(C)on2)c1=O", "classification": "Criterion met"}

Prompt line: Problem: For the compound `CC[C@@H](C(=O)N[C@H](/C=C/C(=O)OCc1ccccc1)C[C@@H]1CCNC1=O)n1cccc(NC(=O)c2cc(C)on2)c1=O` , is metabolised at 0.5 h, 25 µM under 60%?
Response line: Criterion not met
